- Tested on: SR leukemia
- Assay protocol: NCI tumour cell line growth inhibition, 48 h

# Molecule, Measured target, TGI
measured = [
    ("O=C(CCc1ccc(O)c(O)c1)OCCc1ccccc1", "SR leukemia", "> 78.2 µM"),
    ("O=CN/N=C/c1ccc(Cl)c([N+](=O)[O-])c1", "SR leukemia", "22.6 µM"),
    ("CCOC(=O)c1c(SCc2ccccc2)nc2c3ccccc3ccn12", "SR leukemia", "> 100 µM"),
    ("O=C(c1cccs1)N(C(=S)N1CCN(c2ccccc2)CC1)C1CCCCC1", "SR leukemia", "> 100 µM"),
    ("O=C1N[C@@H]2[C@@H](O)[C@@H](O)[C@H](O)C[C@H]2c2cc3c(c(O)c21)OCO3", "SR leukemia", "> 100 µM"),
    ("C=CC(=O)N1C[C@H](COc2nc(Nc3cnn(C)c3)nc3[nH]cc(Cl)c23)[C@@H](OC)C1", "SR leukemia", "> 100 µM"),
    ("O=S(=O)(Nc1ccc(Cl)cc1)c1ccc(-c2cnc(C3CC3)o2)cc1", "SR leukemia", "28.5 µM"),
    ("CN(C)CCNc1ccc(NCC[N+](C)(C)Cc2ccc([N+](=O)[O-])cc2)c2c1C(=O)c1ccccc1C2=O", "SR leukemia", "> 25 µM"),
    ("CCOC(=O)/C=C1/SC(N2CCCCC2)C(=O)N1CC (centres undefined)", "SR leukemia", "> 100 µM"),
    ("O=C(Nc1cccc(Cl)c1)Nc1nccs1", "SR leukemia", "46.7 µM"),
    ("CC(=O)N1C(Nc2cnc3ccccc3c2)CCN1c1ccccc1 (centres undefined)", "SR leukemia", "> 10 µM"),
    ("CCCNC(=S)N=Nc1c(O)[nH]c2ccccc12", "SR leukemia", "> 100 µM"),
    ("CN(C(=O)CCC(=O)O)c1ccccc1C(=O)O", "SR leukemia", "> 100 µM"),
    ("NCCc1ccc2oc3cc(=O)c4ccccc4c-3nc2c1", "SR leukemia", "4.67 µM"),
    ("O=c1c2ccc(Cl)cc2oc2c(CNc3ccc(S(=O)(=O)Nc4nccs4)cc3)cccc12", "SR leukemia", "> 100 µM"),
    ("COc1cccc2c(Nc3ccc(S(=O)(=O)N=C(N)N)cc3)c3ccc([N+](=O)[O-])cc3nc12", "SR leukemia", "70.7 µM"),
    ("C[n+]1c2ccccc2c(Nc2ccc(N3CCCCC3)cc2)c2[nH]c3ccccc3c21", "SR leukemia", "> 100 µM"),
    ("COc1ccc(CCCNC(=O)Cc2cc(OC)c(OC)cc2CO)cc1OC", "SR leukemia", "> 100 µM"),
    ("Nc1ccc(I)cn1", "SR leukemia", "> 100 µM"),
    ("CC(=N\\O)/C(C)=N/O.CC(=N\\O)/C(C)=N/O.CC(=N\\O)/C(C)=N/O.CC(=N\\O)/C(C)=N/O.[CH3-].[CH3-].[Co].[Co]", "SR leukemia", "50.1 µM"),
    ("Cc1ccc(Cc2nc(=S)[nH][nH]2)cc1", "SR leukemia", "> 100 µM"),
    ("Cc1cc(Oc2ccccc2)ccc1Nc1ncnc2ccc(-c3cnc(Cl)c(NS(C)(=O)=O)c3)cc12", "SR leukemia", "5.56 µM"),
    ("[N-]=[N+]=NC1C2CC3C4CC5CC3[C@H](C2)C(C5)C41 (some centres undefined)", "SR leukemia", "> 100 µM"),
    ("CCOC(=O)/C(SC#N)=C(/N)N1CCCC1", "SR leukemia", "> 100 µM"),
    ("O=[N+]([O-])c1ccc2c(c1)C(=NO)c1cc([N+](=O)[O-])ccc1-2", "SR leukemia", "9.86 µM"),
    ("COC(=O)C#Cc1cccc(OC)c1OC", "SR leukemia", "44.8 µM"),
    ("O=C(Nc1ccc([As]=[As]c2ccc(NC(=O)c3ccccc3)cc2)cc1)c1ccccc1 (centres undefined)", "SR leukemia", "0.751 µM"),
    ("CSc1ncnc2c1cnn2Cc1cn(CCCCO)nn1", "SR leukemia", "> 100 µM"),
    ("CC1(C)NC(C)(C)/C(=N\\O)C(=NO)/C1=N/O", "SR leukemia", "> 100 µM"),
    ("COC(=O)C1=CN(CC2=CC(=O)C(C)=CC2=O)C=C(C(=O)OC)C1c1cc(OC)ccc1OC", "SR leukemia", "> 22.3 µM"),
    ("C/C(=N/OC(=O)c1cccc2c(=O)c3ccccc3[nH]c12)[C@H]1CC[C@H]2[C@@H]3CCC4=C/C(=N/OC(=O)c5cccc6c(=O)c7ccccc7[nH]c56)CC[C@]4(C)[C@H]3CC[C@]12C", "SR leukemia", "25.3 µM"),
    ("C=C1C(=O)O[C@H]2[C@H]1CC/C(COC(=O)/C=C\\C(=O)NCc1ccc(Cn3c(=O)sn(CCCI)c3=O)cc1)=C\\CC[C@@]1(C)O[C@@H]21", "SR leukemia", "7.8 µM"),
    ("Oc1ccc(-c2nc(=S)[nH][nH]2)cc1", "SR leukemia", "> 100 µM"),
    ("ClCCn1cnc2c(SCc3ccccc3Cl)ncnc21", "SR leukemia", "13.1 µM"),
    ("NC1C(O)C(O)C(CO)OC1n1cc(F)c(=O)[nH]c1=O (centres undefined)", "SR leukemia", "> 100 µM"),
    ("Cc1cc(N(CCNc2ccnc3cc(Cl)ccc23)Cc2cccs2)nc(Cl)n1", "SR leukemia", "4.02 µM"),
    ("C[C@]12CCC(=O)CC1CC[C@@H]1C2CC[C@@]2(C)C1CC[C@@H]2OC(=O)CC[Se][Se]CCC(=O)O[C@H]1CCC2[C@@H]3CCC4CC(=O)CC[C@]4(C)C3CC[C@@]21C (some centres undefined)", "SR leukemia", "> 100 µM"),
    ("COC(=O)CCc1ccc2c(c1)[C@H](C(=O)OC)[C@@H](c1ccc(O)cc1)O2", "SR leukemia", "> 100 µM"),
    ("CCCCCCCC(=O)SCC/C=C/[C@@H]1CC(=O)NCc2cccc(n2)CN(Cc2ccc3ccccc3c2)CC(=O)N[C@@H](C(C)C)C(=O)O1", "SR leukemia", "> 100 µM"),
]

Data origin, for the record: PubChem BioAssay (NCI)
